- assay-summary: Pharmacokinetic study, 4ET-03-009 at 20 mg/kg oral
- Assay type: in vivo, CD-1 male mice
- recorded-conditions: male, CD-1, mouse, plasma, oral, 20 mg/kg, 4 hours, read-out: Plasma Conc. (per mouse n = 3)
- Description: Compound 4ET-03-009 was dissolved in a 10% dimethylacetamide (DMA)/3000 polyethylene glycol (PEG) 300/400% propylene glycol (PG)/200% water solvent. […] Plasma was collected at indicated timepoints and plasma concentration of compound 4ET-03-009 was measured using liquid chromatography-mass spectrometry/mass spectrometry (LC-MS/MS). Results are presented in FIG. 1 and Tables 3, 4, and 5. […]

- chemical-structure: "Cc1cc(Nc2cc(NC(=O)C3CC3)ncn2)c(=O)n2c1C(=O)NC21CCOCC1"
  concentration at 4 hours (ng/mL): 180

====

The reader will find reported pIC50 values listed item by item below.
- System: eIF4E phosphorylation at Serine 209 in the human embryonic kidney (HEK) 293 cell line
- assay-summary: eIF4E phosphorylation in HEK 293 cells (fluorescent plate reader)
- Format: cell-based
- recorded-conditions: Homo sapiens, HEK293, 2 h, eIF4E phosphorylation at Serine 209, 2 hours exposure
pIC50: −log10 of the molar value.

- compound: "Cc1cc(Nc2cc(NCCO)ncn2)c(=O)n2c1C(=O)NC2(C)C [Compound 4ET-03-004]"
  study-target: "eIF4E phosphorylation at Serine 209 in the human embryonic kidney (HEK) 293 cell line"
  pIC50: 7.06
- compound: "Cc1cc(Nc2cc(NCCN3CCOCC3)ncn2)c(=O)n2c1C(=O)NC21CCCCC1 [Compound 4ET-02-005]"
  study-target: "eIF4E phosphorylation at Serine 209 in the human embryonic kidney (HEK) 293 cell line"
  pIC50: 7.65
- compound: "Cc1cc(Nc2cc(NCCO)ncn2)c(=O)n2c1C(=O)NC21CCCCC1 [Compound 4ET-02-001]"
  study-target: "eIF4E phosphorylation at Serine 209 in the human embryonic kidney (HEK) 293 cell line"
  pIC50: 8.15
- compound: "Cc1cc(Nc2cc(NCCO)ncn2)c(=O)n2c1C(=O)NC21CCCC1 [Compound 4ET-03-007]"
  study-target: "eIF4E phosphorylation at Serine 209 in the human embryonic kidney (HEK) 293 cell line"
  pIC50: 8.00
- compound: "Cc1cc(Nc2cc(NCCO)ncn2)c(=O)n2c1C(=O)NC21CCOCC1 [Compound 4ET-03-011]"
  study-target: "eIF4E phosphorylation at Serine 209 in the human embryonic kidney (HEK) 293 cell line"
  pIC50: 7.49
- compound: "Cc1cc(Nc2cc(NC(=O)C3CC3)ncn2)c(=O)n2c1C(=O)NC21Cc2ccccc2[C@@H]1O (stereo in doubt) [Compound 4ET-03-063]"
  study-target: "eIF4E phosphorylation at Serine 209 in the human embryonic kidney (HEK) 293 cell line"
  pIC50: 7.77
- compound: "Cc1cc(Nc2cc(NC(=O)C(C)C)ncn2)c(=O)n2c1C(=O)NC2(C)C [Compound 4ET-03-001]"
  study-target: "eIF4E phosphorylation at Serine 209 in the human embryonic kidney (HEK) 293 cell line"
  pIC50: 7.33
- compound: "CC1=CC2(CCC1)NC(=O)c1c(C)cc(Nc3cc(N)ncn3)c(=O)n12 (stereo not drawn) [Compound 4ET-01-058]"
  study-target: "eIF4E phosphorylation at Serine 209 in the human embryonic kidney (HEK) 293 cell line"
  pIC50: 7.96
- compound: "Cc1cc(Nc2cc(NC(=O)C3CC3)ncn2)c(=O)n2c1C(=O)NC21Cc2ccccc2[C@@H]1F (single isomer, unassigned) [Compound 4ET-03-052A]"
  study-target: "eIF4E phosphorylation at Serine 209 in the human embryonic kidney (HEK) 293 cell line"
  pIC50: 7.72
- compound: "Cc1cc(Nc2cc(NCCNS(C)(=O)=O)ncn2)c(=O)n2c1C(=O)NC21CCCCC1 [Compound 4ET-02-004]"
  study-target: "eIF4E phosphorylation at Serine 209 in the human embryonic kidney (HEK) 293 cell line"
  pIC50: 7.51
- compound: "Cc1cc(Nc2cc(N)ncn2)c(=O)n2c1C(=O)NC21CCC(NS(C)(=O)=O)CC1 (stereo not drawn) [Compound 4ET-01-004]"
  study-target: "eIF4E phosphorylation at Serine 209 in the human embryonic kidney (HEK) 293 cell line"
  pIC50: 7.47
- compound: "Cc1cc(Nc2cc(NC(=O)C3CC3)ncn2)c(=O)n2c1C(=O)NC21CCCCC1 [Compound 4ET-02-003]"
  study-target: "eIF4E phosphorylation at Serine 209 in the human embryonic kidney (HEK) 293 cell line"
  pIC50: 8.85
- compound: "Cc1cc(Nc2cc(NC(=O)C(C)C)ncn2)c(=O)n2c1C(=O)NC21CCCC1 [Compound 4ET-03-005]"
  study-target: "eIF4E phosphorylation at Serine 209 in the human embryonic kidney (HEK) 293 cell line"
  pIC50: 8.59
- compound: "Cc1cc(Nc2cc(NCCN3CCOCC3)ncn2)c(=O)n2c1C(=O)NC21CCOCC1 [Compound 4ET-03-010]"
  study-target: "eIF4E phosphorylation at Serine 209 in the human embryonic kidney (HEK) 293 cell line"
  pIC50: 6.78
- compound: "Cc1cc(Nc2cc(NCCN3CCOCC3)ncn2)c(=O)n2c1C(=O)NC21CCCC1 [Compound 4ET-03-006]"
  study-target: "eIF4E phosphorylation at Serine 209 in the human embryonic kidney (HEK) 293 cell line"
  pIC50: 7.28

// provenance: patent US20230286983A1
